Data origin: PubChem BioAssay AID778

The entries below come with measured inhibition values attached.
- tgt: Cytochrome P450 2C19 (Homo sapiens)
- protocol text: blockers of cytochrome P450 2C19 activity – biochemical, luminescence, ADME assay, primary screen (AID 778);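 also: plate controls were negative control wells for no effect and 2.5 mM tranylcypromine positive control for full effect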
- test context: CYP2C19 Supersomes, luciferin-H EGE luminescence, 30 min; at 5 µM; stronger effect = higher value
The campaign covered roughly 96,000 compounds. About 20,000 (21%) were called active. A selection follows.
Number only, in %; omit the unit.

Here is how some compounds turned out for inhibition.
{"compound": "CC1(C)Cc2ccccc2-c2nc(CN3CCOCC3)[nH]c(=O)c21", "metric": "inhibition", "endpoint unit": "%", "measured result": 9.2}
{"compound": "CC(=O)Nc1ccc(S(=O)(=O)N2CCN(CCCOc3cc(C)ccc3C)CC2)cc1", "metric": "inhibition", "endpoint unit": "%", "measured result": 84.1}
{"compound": "CCCCCN1CC(O)=C(c2nc(-c3ccc(Cl)cc3)cs2)C1=N", "metric": "inhibition", "endpoint unit": "%", "measured result": 7.1}

Briefly, inhibition measured for Cc1cccc(OCCCC(=O)Nc2ccc(S(=O)(=O)N3CCCC3)cc2)c1 : 50.1

Briefly, inhibition measured for CCC1CCCCN1CCCNC(=O)C1CCC(Cn2c(=O)[nH]c3ccccc3c2=O)CC1 (centres undefined) : 6

Briefly, inhibition measured for CCCCc1nccn1CCn1ccnc1CCCC : -17.6

Briefly, inhibition measured for C=CCNC(=O)CCCOc1cccc(C)c1 : 17.5

Briefly, inhibition measured for Cn1nc(C(F)(F)F)c2cc(NC(=O)OCC(C)(C)C)sc21 : 34.6

Briefly, inhibition measured for O=C(CSCc1cccs1)N1CCCC1 : 16.5

Briefly, inhibition measured for COc1ccc(-c2noc(-c3cccc(OC)c3OC)n2)cc1OC : 22.7

Briefly, inhibition measured for CCC(=O)c1ccc(OCC(O)CN2CCN(c3cccc(C(F)(F)F)c3)CC2)cc1 (centres undefined) : 25.5

---

- tgt: Cytochrome P450 2C19 (Homo sapiens) (UniProt P33261)
- Sequence (P33261 whole entry, looked up): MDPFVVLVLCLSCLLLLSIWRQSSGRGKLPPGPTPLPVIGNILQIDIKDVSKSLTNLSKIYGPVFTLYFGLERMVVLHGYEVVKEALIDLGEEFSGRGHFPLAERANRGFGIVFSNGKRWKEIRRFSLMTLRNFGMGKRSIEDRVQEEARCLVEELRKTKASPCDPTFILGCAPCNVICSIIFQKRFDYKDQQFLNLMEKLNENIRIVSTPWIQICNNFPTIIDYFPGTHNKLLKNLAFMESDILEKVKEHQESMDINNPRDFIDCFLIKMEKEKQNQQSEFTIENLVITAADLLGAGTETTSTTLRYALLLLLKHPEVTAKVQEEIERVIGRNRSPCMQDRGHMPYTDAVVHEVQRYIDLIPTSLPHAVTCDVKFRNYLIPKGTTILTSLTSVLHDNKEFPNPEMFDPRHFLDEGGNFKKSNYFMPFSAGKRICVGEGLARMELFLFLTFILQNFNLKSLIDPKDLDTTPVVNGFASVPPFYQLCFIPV
- protocol text: blockers of cytochrome P450 2C19 activity – biochemical, luminescence, ADME assay, primary screen (AID 778);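 also: plate controls were negative control wells for no effect and 2.5 mM tranylcypromine positive control for full effect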
- test context: CYP2C19 Supersomes, luciferin-H EGE luminescence, 30 min; at 5 µM; stronger effect = higher value
The campaign covered roughly 96,000 compounds. About 20,000 (21%) were called active. Not all results are given here.
metric: inhibition (%)
Number only, in %; omit the unit.

{"compound": "Cc1ccc(S(=O)(=O)n2nc(OC(=O)C(C)(C)C)cc2N)cc1", "tgt": "Cytochrome P450 2C19 (Homo sapiens) (UniProt P33261)", "measured result": 21.6}
{"compound": "COc1ccccc1OCCNc1cc(N2CCOCC2)ccc1[N+](=O)[O-]", "tgt": "Cytochrome P450 2C19 (Homo sapiens) (UniProt P33261)", "measured result": 60.3}
{"compound": "Cc1cccc(Cn2c(N3CCN(c4ccccc4)CC3)nc3c2c(=O)n(C)c(=O)n3C)c1", "tgt": "Cytochrome P450 2C19 (Homo sapiens) (UniProt P33261)", "measured result": 72.8}
{"compound": "COc1ccc(C(F)(F)F)cc1N/C=C\\c1nnnn1-c1ccc(C)cc1", "tgt": "Cytochrome P450 2C19 (Homo sapiens) (UniProt P33261)", "measured result": 40.8}

Briefly, inhibition measured for COc1ccc(Cc2nnc(SCC(=O)c3cccc([N+](=O)[O-])c3)n2C)cc1 : 15.5

Briefly, inhibition measured for Cn1c(-c2ccco2)nc2cc3ccccc3cc21 : 53.3

Briefly, inhibition measured for CC1CCCN(C(=O)Cn2c(=O)oc3ccccc32)C1 (centres undefined) : 26.2

Briefly, inhibition measured for O=C(Nc1cccc(OCC(=O)N2CCOCC2)c1)C1CCCCC1 : -9.5

Briefly, inhibition measured for CCOC(=O)CSc1nc2c(c(=O)n(Cc3ccccc3Cl)c(=O)n2C)n1C : -6
